# TGT: T1, human pro-myostatin (human, UniProt O14793 24-375, biotinylated (in the SPR assay))
# T1 construct: Disulfide-linked homodimer; also called proGDF8 (human)
# ASSAY DETAILS: SPR Biacore 8K, biotin-antigen captured
koff values by entry
Kindly report the value followed by its unit.

The cases that follow already have their koff on record.
binder="Ab104 (antibody, human IgG4 S228P, kappa, V domains shown) VH: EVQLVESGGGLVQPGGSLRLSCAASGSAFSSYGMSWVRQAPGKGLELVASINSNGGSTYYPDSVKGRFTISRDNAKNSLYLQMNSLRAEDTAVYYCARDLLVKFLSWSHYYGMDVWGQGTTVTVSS VL: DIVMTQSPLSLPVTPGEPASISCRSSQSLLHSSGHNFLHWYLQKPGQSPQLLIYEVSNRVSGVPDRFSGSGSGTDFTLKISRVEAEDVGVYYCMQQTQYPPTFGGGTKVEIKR" reported_measurement="0.000381 s⁻¹"
binder="Ab101 (antibody, human IgG4 S228P, kappa, V domains shown) VH: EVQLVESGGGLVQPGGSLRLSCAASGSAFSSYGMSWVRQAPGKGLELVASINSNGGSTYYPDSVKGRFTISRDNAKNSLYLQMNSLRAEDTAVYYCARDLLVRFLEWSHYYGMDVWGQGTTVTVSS VL: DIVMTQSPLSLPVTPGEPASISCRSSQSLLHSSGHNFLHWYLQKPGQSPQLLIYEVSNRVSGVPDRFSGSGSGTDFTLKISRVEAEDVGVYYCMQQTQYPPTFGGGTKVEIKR" reported_measurement="0.000339 s⁻¹"

Now look at this entry.
Asked: State the recorded koff for this entry: Ab123 (antibody, human IgG4 S228P, kappa, V domains shown) VH: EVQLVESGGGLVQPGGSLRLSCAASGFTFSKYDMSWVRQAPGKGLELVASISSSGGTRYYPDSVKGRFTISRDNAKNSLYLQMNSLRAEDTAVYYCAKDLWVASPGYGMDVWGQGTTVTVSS VL: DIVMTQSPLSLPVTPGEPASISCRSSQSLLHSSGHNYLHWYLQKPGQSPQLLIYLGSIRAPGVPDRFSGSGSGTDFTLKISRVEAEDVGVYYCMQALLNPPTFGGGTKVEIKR
Given back: 0.000543 s⁻¹

The values you see were collected from patent US20260209325A1.
